FYI, the data here is from patent US20250255889A1.

System: primary CLL samples (CD19+ and CD5+ cells)
Assay: High-throughput dynamic BH3 profiling (HT-DBP): drug-induced apoptotic priming (delta priming), cytochrome c release after BH3 peptide
Format: cell-based, human
Conditions: Feature EC-m2
MEASUREMENT_LABEL: direction

Cc1c(-c2ccc(N3CCc4cccc(C(=O)Nc5nc6ccccc6s5)c4C3)nc2C(=O)O)cnn1CC12CC3CC(CC(C3)C1)C2 :: Resistant
CC1(C)CCC(c2ccc(Cl)cc2)=C(CN2CCN(c3ccc(C(=O)NS(=O)(=O)c4ccc(N[C@H](CCN5CCOCC5)CSc5ccccc5)c(S(=O)(=O)C(F)(F)F)c4)cc3)CC2)C1 :: Resistant
CC1(C)CCC(CN2CCN(c3ccc(C(=O)NS(=O)(=O)c4ccc(NCC5CCOCC5)c([N+](=O)[O-])c4)c(Oc4cnc5[nH]ccc5c4)c3)CC2)=C(c2ccc(Cl)cc2)C1 :: Resistant
